Every entry's value here was drawn from patent US20260069689A1.

The reader will find reported pKd values listed item by item below.
target: SARS-COV-2 RBD extracellular domain expressed with a C-terminal myc-myc-hexahistidine tag (SARS-COV-2 RBD-mmH) (SARS-CoV-2); assay: SPR Biacore, mAb captured on anti-hFc, RBD-mmH analyte, 37 C
pKd: −log10 of the molar value.
assay_metric: pKd

INSERT INTO results (binder, quantitative_result) VALUES
  ('mAb14285 (antibody, V domains shown) VH: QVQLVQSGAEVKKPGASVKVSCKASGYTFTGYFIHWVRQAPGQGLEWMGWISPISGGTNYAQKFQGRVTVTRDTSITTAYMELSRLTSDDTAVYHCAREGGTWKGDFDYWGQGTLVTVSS VL: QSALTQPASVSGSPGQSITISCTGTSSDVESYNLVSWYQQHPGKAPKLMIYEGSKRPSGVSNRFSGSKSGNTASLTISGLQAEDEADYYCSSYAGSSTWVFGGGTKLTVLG', 7.88),
  ('mAb14315 (antibody, V domains shown) VH: QVQLVQSGAEVKKPGSSVKVSCKASGDTFSTYAINWVRQAPGQGLEWMGRFIHIFGTANYAQKFQGRVTITADESTSTAYMELRSLRSEDTAVYYCARDGVDYGDYRPDYWGQGTLVTVSS VL: EIVLTQSPGTLSLSPGERATLSCRASQSVSSNYLAWYQQKPGQAPRLLIYGASSRATGIPERFSGSGSGTDFTLTISRLEPEDFAVYYCQQYGSSLYTFGQGTKLEIKR', 8.65);
